Target: GluN1/GluN2B NMDA receptors (Rattus norvegicus, UniProt P35439+Q00960)
Sequence (Q00960 27-1482, other chains not shown): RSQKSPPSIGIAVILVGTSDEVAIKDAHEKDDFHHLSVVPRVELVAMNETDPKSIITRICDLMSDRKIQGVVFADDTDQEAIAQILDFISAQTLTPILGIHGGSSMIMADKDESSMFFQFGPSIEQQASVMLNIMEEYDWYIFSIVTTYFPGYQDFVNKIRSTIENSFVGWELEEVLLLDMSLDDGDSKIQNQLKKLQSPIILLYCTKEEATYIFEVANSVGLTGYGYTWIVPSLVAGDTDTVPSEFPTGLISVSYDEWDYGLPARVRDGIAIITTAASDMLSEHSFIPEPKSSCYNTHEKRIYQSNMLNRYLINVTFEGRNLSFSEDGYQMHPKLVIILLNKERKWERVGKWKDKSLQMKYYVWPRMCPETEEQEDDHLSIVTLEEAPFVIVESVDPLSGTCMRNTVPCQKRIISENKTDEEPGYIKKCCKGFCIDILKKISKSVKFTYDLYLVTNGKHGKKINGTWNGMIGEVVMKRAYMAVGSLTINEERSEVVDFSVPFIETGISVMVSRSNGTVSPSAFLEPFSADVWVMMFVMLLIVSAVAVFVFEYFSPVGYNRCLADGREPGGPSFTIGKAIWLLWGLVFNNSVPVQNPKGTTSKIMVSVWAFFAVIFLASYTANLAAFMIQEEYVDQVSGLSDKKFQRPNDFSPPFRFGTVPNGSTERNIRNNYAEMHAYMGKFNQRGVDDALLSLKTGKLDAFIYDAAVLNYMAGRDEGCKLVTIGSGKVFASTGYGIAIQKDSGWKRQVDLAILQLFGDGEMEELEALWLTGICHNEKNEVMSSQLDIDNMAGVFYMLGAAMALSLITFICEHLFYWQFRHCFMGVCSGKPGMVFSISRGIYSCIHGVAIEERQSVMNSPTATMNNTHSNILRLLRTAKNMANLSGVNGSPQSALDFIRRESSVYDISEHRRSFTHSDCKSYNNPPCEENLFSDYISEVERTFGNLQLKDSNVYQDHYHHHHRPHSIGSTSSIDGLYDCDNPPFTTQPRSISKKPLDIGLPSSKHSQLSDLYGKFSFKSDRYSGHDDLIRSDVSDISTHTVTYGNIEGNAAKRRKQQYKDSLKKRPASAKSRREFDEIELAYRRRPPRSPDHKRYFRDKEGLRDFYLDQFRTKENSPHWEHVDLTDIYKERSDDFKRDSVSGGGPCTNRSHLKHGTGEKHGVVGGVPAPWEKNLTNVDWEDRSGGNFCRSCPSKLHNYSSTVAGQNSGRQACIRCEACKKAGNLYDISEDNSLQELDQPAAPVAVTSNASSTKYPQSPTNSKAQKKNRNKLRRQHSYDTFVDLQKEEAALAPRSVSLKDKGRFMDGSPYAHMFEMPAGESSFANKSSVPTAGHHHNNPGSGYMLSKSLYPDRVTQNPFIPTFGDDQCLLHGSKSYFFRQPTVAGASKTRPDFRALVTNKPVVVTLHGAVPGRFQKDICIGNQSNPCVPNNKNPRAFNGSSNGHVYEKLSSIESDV
Test: Two-electrode voltage-clamp
Assay type: cell-based
Conditions: read-out: Antagonist IC50
pIC50: −log10 of the molar value.

Record smiles: O=C(O)c1cc(=O)c2c(Cl)cc(Cl)cc2[nH]1
pIC50: 7.13

###

Biological target: GluN1/GluN2A NMDA receptors (Rattus norvegicus, UniProt P35439+Q00959)
Sequence (Q00959 23-1464, other chains not shown): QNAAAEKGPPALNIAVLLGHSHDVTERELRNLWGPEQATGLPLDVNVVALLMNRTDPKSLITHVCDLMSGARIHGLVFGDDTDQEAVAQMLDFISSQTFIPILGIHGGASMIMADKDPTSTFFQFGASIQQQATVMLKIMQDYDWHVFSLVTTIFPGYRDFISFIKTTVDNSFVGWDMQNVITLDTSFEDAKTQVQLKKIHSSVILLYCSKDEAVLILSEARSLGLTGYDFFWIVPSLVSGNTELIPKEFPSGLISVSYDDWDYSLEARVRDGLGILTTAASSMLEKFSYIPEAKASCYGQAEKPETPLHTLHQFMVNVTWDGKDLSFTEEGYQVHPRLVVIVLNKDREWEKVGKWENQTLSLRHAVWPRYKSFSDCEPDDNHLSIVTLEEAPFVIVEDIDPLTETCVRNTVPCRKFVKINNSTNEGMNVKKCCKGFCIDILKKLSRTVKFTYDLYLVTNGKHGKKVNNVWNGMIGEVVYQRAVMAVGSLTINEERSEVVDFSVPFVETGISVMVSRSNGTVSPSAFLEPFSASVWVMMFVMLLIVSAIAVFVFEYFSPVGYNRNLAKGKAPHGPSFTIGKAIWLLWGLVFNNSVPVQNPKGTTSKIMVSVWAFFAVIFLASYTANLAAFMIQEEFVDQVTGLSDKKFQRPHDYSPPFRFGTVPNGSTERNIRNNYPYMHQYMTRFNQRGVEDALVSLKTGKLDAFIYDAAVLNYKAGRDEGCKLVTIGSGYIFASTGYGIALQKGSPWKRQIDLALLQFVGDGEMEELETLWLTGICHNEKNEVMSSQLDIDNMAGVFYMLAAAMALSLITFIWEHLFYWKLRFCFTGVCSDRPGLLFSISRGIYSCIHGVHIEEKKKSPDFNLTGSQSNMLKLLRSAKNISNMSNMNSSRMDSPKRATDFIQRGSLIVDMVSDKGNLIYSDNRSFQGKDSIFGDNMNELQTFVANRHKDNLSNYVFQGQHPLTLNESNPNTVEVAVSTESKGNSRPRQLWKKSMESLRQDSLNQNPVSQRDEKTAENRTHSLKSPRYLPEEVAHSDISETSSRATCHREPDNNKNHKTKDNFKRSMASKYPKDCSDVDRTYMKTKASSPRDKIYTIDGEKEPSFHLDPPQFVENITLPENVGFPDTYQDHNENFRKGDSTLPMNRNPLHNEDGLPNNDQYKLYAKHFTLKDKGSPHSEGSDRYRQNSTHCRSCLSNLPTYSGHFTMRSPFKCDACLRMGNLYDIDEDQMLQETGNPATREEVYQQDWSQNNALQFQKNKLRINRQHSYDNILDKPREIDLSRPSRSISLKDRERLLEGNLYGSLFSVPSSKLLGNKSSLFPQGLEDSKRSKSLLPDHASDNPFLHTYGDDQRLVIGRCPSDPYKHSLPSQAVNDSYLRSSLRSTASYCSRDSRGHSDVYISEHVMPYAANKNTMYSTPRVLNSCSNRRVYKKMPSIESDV
Assay: Two-electrode voltage-clamp
Format: cell-based
Conditions: read-out: Antagonist IC50; [gly]= EC50 ([…] glycine) + 100 µM glutamate

Compound: O=C(O)c1cc(=O)c2c(Cl)cc(Cl)cc2[nH]1 [5,7 DCKA, 5,7 dichlorokynurenic acid]
IC50, µM: 0.42

###

Biological target: GluN1/GluN2B NMDA receptors (Rattus norvegicus, UniProt P35439+Q00960)
Assay: Two-electrode voltage-clamp
Format: cell-based
Endpoint: IC50

Record smiles: O=C(CSc1nnc(NCc2ccccc2)s1)NCC1CCCCC1
Endpoint: IC50
Result: > 300 µM

###

Target: GluN1/GluN2A NMDA receptors (Rattus norvegicus, UniProt P35439+Q00959)
Test: Two-electrode voltage-clamp
Assay type: cell-based
Conditions: Antagonist IC50, [gly]= EC50 ([…] glycine) + 100 µM glutamate
pIC50: −log10 of the molar value.

Compound: O=C(CSc1nnc(NCc2ccccc2)s1)NCC1CCCCC1 [TCN 213]
pIC50: 5.46

###

Molecular target: GluN1/GluN2A NMDA receptors (Rattus norvegicus, UniProt P35439+Q00959)
Experiment: Two-electrode voltage-clamp
Type: cell-based
Conditions: Antagonist IC50, [gly]= 0.1 EC50 ([…] glycine) + 100 µM glutamate
pIC50: −log10 of the molar value.

Molecule: O=C(CSc1nnc(NCc2ccccc2)s1)NCC1CCCCC1 [TCN 213]
pIC50: 6.26

###

Target: GluN1/GluN2B NMDA receptors (Rattus norvegicus, UniProt P35439+Q00960)
Experiment: Two-electrode voltage-clamp
Format: cell-based
Conditions: read-out: Antagonist IC50; [gly]= 10 EC50
pIC50: −log10 of the molar value.

Compound: O=C(O)c1cc(=O)c2c(Cl)cc(Cl)cc2[nH]1 [5,7 DCKA, 5,7 dichlorokynurenic acid]
pIC50: 5.39

###

Target: GluN1/GluN2A NMDA receptors (Rattus norvegicus, UniProt P35439+Q00959)
Test: Two-electrode voltage-clamp
Format: cell-based
Conditions: read-out: Antagonist IC50; [gly]= 0.1 EC50 ([…] glycine) + 100 µM glutamate
Endpoint: IC50 (µM)

Record smiles: O=C(O)c1cc(=O)c2c(Cl)cc(Cl)cc2[nH]1
Assay target: GluN1/GluN2A NMDA receptors (Rattus norvegicus, UniProt P35439+Q00959)
Result unit: µM
Measured number: 0.13

###

Target: GluN1/GluN2B NMDA receptors (Rattus norvegicus, UniProt P35439+Q00960)
Assay: Two-electrode voltage-clamp
Type: cell-based
Conditions: read-out: Antagonist IC50; [gly]= EC50
pIC50: −log10 of the molar value.

Record smiles: O=C(O)c1cc(=O)c2c(Cl)cc(Cl)cc2[nH]1
pIC50: 6.31
